Measured pEC50 by item
- SYSTEM_NAME: GI.3 (norovirus GI.3)
- PROTOCOL_TEXT: VLP-PGM blockade
pEC50: −log10 of the molar value.

{"BINDER": "323A (antibody, V domains shown) VH: QVQLVESGGGVVQPGRSLRLSCAASGFTFSGSSLHWVRQAPGKGLEWVAAISYDGTNTYYADSVKGRFTLSRDNSKNTLYLQMNSLRAEDTAVYYCAKPVLSPFDYWGQGTLVTVSS VL: QSALTQPASVSGSPGQSITISCTGTSSDVGGYNYVSWYQQHPGKAPKLLIYEVSNRPSGVSRRFSGSKSGNTASLTISGLQAEDEADYYCCSYTSSSTEVFGGGTKLTVL", "pEC50": 7.82}
{"BINDER": "156.3 (antibody, V domains shown) VH: QVQLQQWGAGLLKPSETLSLTCAVYGGSFSGYYWSWIRQPPGKGLEWIGEINHSGSTNYNPSLKSRVTISVDTSKNQFSLKLSSVTAADTAVYYCARGLMDVWGQGTLVTVSS VL: AIRMTQSPSSFSASTGDRVTITCRASQGISSYLAWYQQKPGKAPKLLIYAASTLQSGVPSRFSGSGSGTDFTLTISCLQSEDFATYYCQQYYSYPRTFGQGTKLEIK", "pEC50": 6.17}
{"BINDER": "178.6 (antibody, V domains shown) VH: QVQLVESGGGVVQPGRSLRLSCAASGFTFSTYGMNWVRQAPGRGLEWVADISYDGSNSRYADSVKGRFTISRDNSKNTLSLQMNGLRTEDTAVYYCAKDWYLAMAGAAFDSWGPGTLVTVSS VL: SSELTQDPVVSVALGQTVRITCQGDSLTTFYASWFQQKPGQAPALVLYGNDNRPSGIPDRFSGSRSGNTASLTITGAQAEDEADYYCNSRDSSGKPSFGGGTKLTVL", "pEC50": 6.33}
{"BINDER": "310A (antibody, V domains shown) VH: EVQLVESGGGLVRPGESLRLSCVASGFSVSDNYMSWVRQAPGKGLQWVSVIYSGGTTFYTDSVKGRFTISRDKSKNTLFLQMNSLRAEDTAVYFCTRDPSQYYDSRGHYYQTFTPSFDSWGQGTLVTVSS VL: DIQMTQSPSVMSASVGDRVTITCRASQDISDYLAWFQQKPGKVPKRLIYAASSLQNGVPSRFSGSGSGTEFTLTISSLQPEDFATYYCLQHDTYPLTFGGGTKVEIK", "pEC50": 6.72}
